The reported measurements were obtained from patent US5958445A.

# ASSAY_PROCEDURE: physchem
# Format: physicochemical
# APPLIED_CONDITIONS: 30% dimethylacetamide
READOUT_LABEL: solubility at 72 h

Summary for this compound, CCc1cccc2c3c([nH]c12)C(CC)(CC(=O)O)OCC3 (racemic) : solubility at 72 h is 2990 µg/mL

Summary for this compound, CCc1cccc2c3c([nH]c12)[C@](CC)(CC(=O)O)OCC3 [S(+)-etodolac] : solubility at 72 h is 3560 µg/mL

---

# ASSAY_PROCEDURE: physchem
# Type: physicochemical
# APPLIED_CONDITIONS: 0.04 m phosphate buffer, pH 8.59, aqueous buffer
# Description: Equilibrium solubility data for S(+)-etodolac based on pH was determined by placing excess amounts of the S(+)-etodolac and about 5 mL of the dissolution medium in screw-capped vials which were covered with aluminum foil and then tumbled in a 25° C. water bath for 3 days. Slurries were filtered through […] Gelman disposable filters. Filtrates were appropriately diluted with their dissolution medium and analyzed by a Cary 210 UV-VIS spectrophotometer at 278 nm. […]
READOUT_LABEL: solubility at 72 h (mg/mL)
Could you give me the number in mg/mL? Just the number is fine.

Summary for this molecule, CCc1cccc2c3c([nH]c12)[C@](CC)(CC(=O)O)OCC3 [S(+)-etodolac] : solubility at 72 h is 15.3

---

# ASSAY_PROCEDURE: physchem
# Assay type: physicochemical
# APPLIED_CONDITIONS: 100% peg 400, organic solvent or mixture
READOUT_LABEL: solubility at 72 h (mg/mL)
Could you give me the number in mg/mL? Just the number is fine.

Summary for this compound, CCc1cccc2c3c([nH]c12)C(CC)(CC(=O)O)OCC3 (racemic) [etodolac] : solubility at 72 h is 1730

---

# ASSAY_PROCEDURE: physchem
# Assay type: physicochemical
# APPLIED_CONDITIONS: 0.1 m phosphate buffer, pH 4.63, aqueous buffer
READOUT_LABEL: solubility at 72 h (µg/mL)
Could you give me the number in µg/mL? Just the number is fine.

Summary for this compound, CCc1cccc2c3c([nH]c12)[C@](CC)(CC(=O)O)OCC3 [S(+)-etodolac] : solubility at 72 h is 193

---

# ASSAY_PROCEDURE: physchem
# Format: physicochemical
# APPLIED_CONDITIONS: 0.1 m acetate buffer, pH 4.41, aqueous buffer
READOUT_LABEL: solubility at 72 h (µg/mL)
Could you give me the number in µg/mL? Just the number is fine.

Summary for this molecule, CCc1cccc2c3c([nH]c12)[C@](CC)(CC(=O)O)OCC3 [S(+)-etodolac] : solubility at 72 h is 120

---

# ASSAY_PROCEDURE: physchem
# Format: physicochemical
# APPLIED_CONDITIONS: 0.01 m phosphate buffer, pH 6.63, aqueous buffer
READOUT_LABEL: solubility at 72 h (µg/mL)
Could you give me the number in µg/mL? Just the number is fine.

Summary for this molecule, CCc1cccc2c3c([nH]c12)[C@](CC)(CC(=O)O)OCC3 [S(+)-etodolac] : solubility at 72 h is 7810
